target: GABA-A receptor; anion channel (Rattus norvegicus) (UniProt O09028+P15431+P18506+P18508+P19969+P20236+P23574+P23576+P28471+P28473+P30191+P62813+P63079+P63138+Q91ZM7+Q9ES14); assay: Ability to inhibit [35S]t-butyl-bicyclophosphorothionate binding by 50% to rat whole brain membrane; format: tissue-based
This section presents compounds with their documented TBPS IC50 values.

response.value for "COc1cccc(OC)c1OC(=O)[C@@H](C)N1CCOCC1.Cl" (field: TBPS IC50) = > 100 µM

So for "COc1cc(C)cc(OC)c1OC(=O)C(C)(C)N1CCOCC1" , the logged TBPS IC50 turned out to be > 10 µM

Lab book: TBPS IC50 of "COc1cccc(OC)c1NC(=O)[C@@H](C)N1CCc2ccccc2C1" noted as > 10 µM

Continuing:
For "COc1cccc(OC)c1C(=O)NCCN1CCc2ccccc2C1" the compound record lists TBPS IC50 as > 100 µM

The value of TBPS IC50 measured for the compound CCC(C(=O)Oc1c(OC)cccc1OC)N1CCOCC1 (stereo unspecified) turned out to be > 10 µM

Item: COCCN(CCOC)C(C(=O)Oc1c(OC)cccc1OC)C(C)C (stereo unspecified) | TBPS IC50: > 10 µM

The origin of these recorded values is ChEMBL document CHEMBL1134654.
